Reference source: PubChem BioAssay AID1706

Molecular target: Replicase polyprotein 1ab (Severe acute respiratory syndrome coronavirus) (UniProt P0C6X7)
Assay: blockers of SARS 3CLpro peptide cleavage – biochemical, quenched FRET, primary screen (AID 1706)
Conditions: recombinant SARS-CoV 3CLpro, at 6 µM
Out of some 290,000 compounds screened, about 400 (0.14%) were called active. Cut-off read from the data, not from the text of the source: active = inhibition above about 12%; inactive = the rest. The full list was thinned out, with actives kept by preference.
Labels: active, inactive

1. O=C(/C=C/c1ccc(F)cc1)Nc1cccc(S(=O)(=O)Nc2cccc(C(F)(F)F)c2)c1 : inactive
2. COc1ccc(NC(=O)C2C3C=CC(C3)C2C(=O)NCc2ccccn2)c(OC)c1 (stereo not given) : inactive
3. Cc1ccc(C(=O)NCCN2CCOCC2)cc1C : active
4. Cc1c(C(=O)NCC(c2ccco2)N2CCCC2)oc2ccc(Cl)cc12 (stereo not given) : inactive
5. CC(=O)Nc1ccc(S(=O)(=O)N(C)CC(=O)NCCC2=CCCCC2)cc1 : inactive
6. Cc1ccc(S(=O)(=O)N(CC(=O)NCc2ccco2)c2ccccc2C)cc1 : inactive
7. C[C@H](NC(=O)C1CC(=O)N(c2ccc3c(c2)OCCO3)C1)C(=O)N1CCC(C(=O)O)CC1 (stereo not given in full) : inactive
8. COc1ccc(NC(=O)CSc2nncc(=O)n2N)cc1OC : inactive
9. Cc1noc(NS(=O)(=O)c2ccc(NC(=O)c3oc4ccc(F)cc4c3C)cc2)c1C : inactive
10. N#Cc1ncc(C(F)(F)F)cc1Oc1cccnc1 : inactive

---

# reported inhibition; entries follow
Biological target: Replicase polyprotein 1ab (Severe acute respiratory syndrome coronavirus) (UniProt P0C6X7)
Experiment: blockers of SARS 3CLpro peptide cleavage – biochemical, quenched FRET, primary screen (AID 1706)
Details: recombinant SARS-CoV 3CLpro, at 6 µM, stronger effect = higher value
Screen size: about 290,000 compounds; about 400 (0.14%) were called active. What follows is part of a selection rich in actives, with near analogues and random picks from the rest.
propertyName: inhibition (%)

1) CC(C)c1c(C(=O)N/N=C/c2ccc(-c3ccccc3)cc2)nnn1-c1nonc1N : 1.56
2) O=C(NCCc1ccc(Cl)cc1)c1cccc(N2CCCC2=O)c1 : 3.05
3) Cc1cccc(C(=O)Nc2nnc(S(=O)(=O)N3CCCCCC3)s2)c1 : 0.72
4) O=C(NCCc1ccccc1Cl)C1CCC(=O)N(CCCc2ccccc2)C1 (stereo not given) : 0
5) COC(=O)C1=CN(c2ccc(F)c(F)c2)C=C(C(=O)OC)C1c1ccc([N+](=O)[O-])cc1 : 1.13

---

Biological target: Replicase polyprotein 1ab (Severe acute respiratory syndrome coronavirus) (UniProt P0C6X7)
Test: blockers of SARS 3CLpro peptide cleavage – biochemical, quenched FRET, primary screen (AID 1706)
Conditions: recombinant SARS-CoV 3CLpro, at 6 µM
The campaign covered roughly 290,000 compounds. About 400 (0.14%) were called active. Cut-off read from the data, not from the text of the source: active = inhibition above about 12%; inactive = the rest. The sample holds actives, similar compounds and a random draw of the others, so the mix is not that of the screen.
Labels: Y = active, N = inactive

1) COc1ccc(/C=C(\C#N)c2c[nH]c3ccccc23)cc1 : Y
2) COc1ccccc1C(=O)NCc1nnc(SC(C)C(=O)Nc2nccs2)n1C (stereo not drawn) : N
3) CC(C)CCN1CCN(Cc2cn[nH]c2C2CCCCC2)CC1CCO (stereo not drawn) : N
4) CS(=O)(=O)N(Cc1ccccc1Cl)c1ccc(C(=O)NCc2cccnc2)cc1 : N
5) Cc1cccc2c1N(CC(=O)OC(C)C)C(=O)C2=O : N
6) CCCCNC(=O)N(O)C1N(/N=C/c2ccc(N(C)C)cc2)C(=S)SC1(C)C (stereo not drawn) : Y
7) Oc1ccc2ccc3cccc[n+]3c2c1 : N
8) O=C(NCCCN1CCCCC1)C1CCCN(c2ncnc3c2nc2n3CCCCC2)C1 (stereo not drawn) : N
9) CCSCc1nc(N)nc(NCCc2ccccc2)n1 : N
10) O=C(NC(Cc1ccccc1)C(=O)O)/C(=C\c1ccccc1)NC(=O)c1ccco1 (stereo not drawn) : N
11) O=C(COC(=O)CCCNC(=O)c1ccc(Cl)cc1)Nc1cc(Cl)ccc1Cl : N
12) COc1cc(C(=O)NCCOC(=O)c2cccc(N(C)C)c2)cc(OC)c1OC : N
13) CCCCNC(=O)N(O)C1N(/N=C/c2ccccc2O)C(=S)SC1(C)C (stereo not drawn) : N
14) CCc1nonc1NC(=O)c1oc2ccc(Cl)cc2c1C : N
15) COc1cc(NS(=O)(=O)c2ccc(NC(=S)NC(=O)c3ccc(Br)cc3)cc2)ncn1 : N
16) O=C1CCCCN1CCCC(=O)N1CCCC(Nc2ccc(F)cc2)C1 (stereo not drawn) : N
17) COc1ccc2cc(CCl)c(Cl)nc2c1 : N
18) COc1cc(CCC(=O)N2CCN(c3ccccc3Cl)CC2)cc(OC)c1OC : N
19) O=C(C1CCC(C(=O)N2CCCC2)CC1)N1CCCC1 (stereo not drawn) : N
20) COc1ccc2[nH]cc(/C=C(/C#N)S(=O)(=O)c3ccccc3)c2c1 : N
21) O=C(COc1ccc(S(=O)(=O)Nc2cccc(C(F)(F)F)c2)cc1)N1CCOCC1 : N
22) O=C(NCCCn1ccnc1)c1cc2c(s1)CCCC2 : N
23) CCC(C)N1C(=S)SC(C)(C)C1N(O)C(=O)NC1CCCCC1 (stereo not drawn) : N

---

Target: Replicase polyprotein 1ab (Severe acute respiratory syndrome coronavirus)
Assay: blockers of SARS 3CLpro peptide cleavage – biochemical, quenched FRET, primary screen (AID 1706)
Conditions: recombinant SARS-CoV 3CLpro, at 6 µM
Out of some 290,000 compounds screened, about 400 (0.14%) were called active. Rule as the data show it: active = inhibition above about 12%; inactive = the rest. This is one part of a sample in which actives are shown more often than they occur.
Labels: t = active, f = inactive

1. Cc1ccc(S(=O)(=O)N[C@@H](Cc2ccccc2)C(=O)N2CCC(C(=O)N[C@H](C(=O)O)C(C)O)CC2)cc1 (stereo not given in full) : f
2. Cc1cc(CNCc2c(C(=O)N(C)Cc3ccccc3)nc3ccccn23)nn1C : f
3. COc1ccc(NC(C(=O)Nc2cccc(C(C)=O)c2)c2ccccc2)cc1 (stereo not given) : f
4. CC(C)c1ccccc1OCC(O)CN(CC(O)COc1cccc2ccccc12)C(C)C (stereo not given) : f
5. COc1cccc(CN(C)CC(O)COC(c2ccccc2)c2ccccc2C)c1 (stereo not given) : f
6. O=C(c1c(F)cccc1Cl)N1CCN(S(=O)(=O)c2ccc3c(c2)OCCCO3)CC1 : f
7. O=C(c1cc(=O)c2ccccc2o1)N1CCN(c2ccccc2)CC1 : t
8. COC(=O)c1ccc2c(=O)n(CCN3CCOCC3)c(SCC(=O)Nc3cccc(OC)c3)nc2c1 : f
9. Cc1ccc(S(=O)(=O)N2CC(C)N(S(C)(=O)=O)C2)cc1 (stereo not given) : f
10. CCOc1ccc(OCCSc2nc3ccccc3n2CC(=O)O)cc1 : f

---

Molecular target: Replicase polyprotein 1ab (Severe acute respiratory syndrome coronavirus)
Experiment: blockers of SARS 3CLpro peptide cleavage – biochemical, quenched FRET, primary screen (AID 1706)
Settings: recombinant SARS-CoV 3CLpro, at 6 µM
Out of some 290,000 compounds screened, about 400 (0.14%) were called active. Cut-off read from the data, not from the text of the source: active = inhibition above about 12%; inactive = the rest. This excerpt belongs to a sample that is enriched for actives.
Labels: Yes = active, No = inactive

1. O=C(CN1CCC(NC(=O)Nc2ccccc2)CC1)Nc1cccc([N+](=O)[O-])c1 : No
2. CC(C)NC(=O)COCc1cc(-c2ccc3c(c2)OCO3)on1 : No
3. O=C(Nc1ccc(Cl)c(Cl)c1)c1ccccc1NC(=O)C1CC=CCC1C(=O)O (stereo unspecified) : No
4. Cc1cccc(-c2noc(CCC(=O)NC3CCCC3)n2)c1 : No
5. CCOc1ccc(OCc2cccc(C(=O)N(CC)CC)c2)cc1 : No
6. CCN1CCN(C(=O)C2CCCN(S(=O)(=O)c3ccc(OC)c(OC)c3)C2)CC1 (stereo unspecified) : No
7. O=C1CCC(=O)N(c2ccccc2)N1 : No
8. Cc1cccc(N2C(=O)N3[C@H](c4ccc(F)cc4)[C@@H]4C(=O)N(C5CCCCC5)C(=O)[C@@H]4[C@]3(Cc3ccccc3)C2=O)c1 : No
9. CCOC(CNC(=O)C(=O)NCC(c1ccco1)N1CCN(c2ccc(OC)cc2)CC1)OCC (stereo unspecified) : No
10. COC(=O)COc1cccc2c(=O)n(CC(=O)NCc3ccccc3)ccc12 : Yes
11. Cc1ccc2cccc(OCCCOc3ccccc3CO)c2n1 : No
12. Cc1c(C(=O)NCCN2CCOCC2)sc2nc(-c3ccc(F)cc3)cn12 : No
13. COc1cccc(CNC(=O)CN(C)S(=O)(=O)c2ccc3c(c2)c(=O)n(C)c(=O)n3C)c1 : No
14. Cc1cc(-c2ccc(S(=O)(=O)N3CCN(c4cccc(C(F)(F)F)c4)CC3)s2)on1 : No
15. COc1ccc(C)cc1N(CC(=O)NC(C)c1ccccc1)S(C)(=O)=O (stereo unspecified) : No
16. Cc1ccc2c(c1)C1CN(C)CCC1N2S(=O)(=O)c1ccc(Oc2ccc([N+](=O)[O-])cc2)cc1 (stereo unspecified) : No
17. CN1CCN(CC(=O)Nc2cccc([N+](=O)[O-])c2)CC1 : Yes
18. Cc1ccc(OCC(=O)Nc2cccc3c2CCCC3)cc1C : No
19. COC(=O)COc1cccc2c(=O)n(CC(=O)NCCc3ccc(OC)c(OC)c3)ccc12 : No
20. CC(=O)c1c(C)n(C(C)C)c2ccc(O)cc12 : No
21. CC(Sc1nnc(CNC(=O)c2ccccc2F)n1C)C(=O)Nc1nccs1 (stereo unspecified) : No
